- Test system: α-isomaltosylglucosaccharide-forming enzyme
- PROCEDURE SUMMARY: Action on saccharides (substrates), Enzyme of Strain N75
- Format: biochemical, Bacillus globisporus N75
- Design: key: −: it showed no change; +: it showed a slight reduction of the color spot of the substrate and the formation of other reaction product; ++: it showed a high reduction of the color spot of the substrate and the formation of other reaction product; +++: it showed a substantial disappearance of the substrate spot and the formation of other reaction product
- CONDITION INFO: two units/g substrate, substrate 2% (w/v), 30° C., pH 6.0, 24 hours, TLC
RECORDED METRIC: Enzymatic action, Enzyme of Strain N75

OC[C@H]1O[C@H](OC[C@H]2O[C@H](O[C@H]3[C@H](O)[C@@H](O)C(O)O[C@@H]3CO)[C@H](O)[C@@H](O)[C@@H]2O)[C@H](O)[C@@H](O)[C@@H]1O (some centres unmarked) : −
OC[C@H]1O[C@H](OC[C@H]2OC(O)[C@H](O)[C@@H](O)[C@@H]2O)[C@H](O)[C@@H](O)[C@@H]1O (some centres unmarked) : −
OC[C@H]1O[C@H](O[C@H]2[C@H](O)[C@@H](O)[C@H](O)O[C@@H]2CO)[C@H](O)[C@@H](O)[C@@H]1O : +
OC[C@H]1O[C@@H](O[C@H]2[C@H](O)[C@@H](O)C(O)O[C@@H]2CO)[C@H](O)[C@@H](O)[C@H]1O (some centres unmarked) : −
OC[C@H]1O[C@H](O[C@H]2[C@H](O)[C@@H](CO)OC(O)[C@@H]2O)[C@H](O)[C@@H](O)[C@@H]1O (some centres unmarked) : +

====

- System: α-isomaltosyl-transferring enzyme
- Assay type: biochemical, Bacillus globisporus C11
- CONDITION INFO: 1 mM of each metal-ion
The entries below come with measured Relative activity (%) values attached.
RECORDED METRIC: Relative activity (%)

[Co+2] : 89
[Ni+2] : 89
[Al+3] : 89
[Ca+2] : 91
[Ba+2] : 90

====

- Test system: α-isomaltosyl-transferring enzyme
- PROCEDURE SUMMARY: Influence of metal ions on the activity of α-isomaltosyl-transferring enzyme (Strain N75)
- Format: biochemical, Bacillus globisporus N75
- CONDITION INFO: 1 mM of each metal-ion
RECORDED METRIC: Relative activity (%)

[Zn+2] [Zn^2+] : 75%
[Cu+2] [Cu^2+] : 15%
[Sr+2] [Sr^2+] : 91%
[Pb+2] [Pb^2+] : 69%
O=C(O)CN(CCN(CC(=O)O)CC(=O)O)CC(=O)O [EDTA, ethylenediaminetetraacetic acid, reference compound] : 92%
[Hg+2] [Hg^2+] : 0.5%
